target: Phosphatidylinositol 3-kinase catalytic subunit type 3 (Homo sapiens); assay: VPS34 ADP-Glo kinase assay
Sequence (Q8NEB9 whole entry): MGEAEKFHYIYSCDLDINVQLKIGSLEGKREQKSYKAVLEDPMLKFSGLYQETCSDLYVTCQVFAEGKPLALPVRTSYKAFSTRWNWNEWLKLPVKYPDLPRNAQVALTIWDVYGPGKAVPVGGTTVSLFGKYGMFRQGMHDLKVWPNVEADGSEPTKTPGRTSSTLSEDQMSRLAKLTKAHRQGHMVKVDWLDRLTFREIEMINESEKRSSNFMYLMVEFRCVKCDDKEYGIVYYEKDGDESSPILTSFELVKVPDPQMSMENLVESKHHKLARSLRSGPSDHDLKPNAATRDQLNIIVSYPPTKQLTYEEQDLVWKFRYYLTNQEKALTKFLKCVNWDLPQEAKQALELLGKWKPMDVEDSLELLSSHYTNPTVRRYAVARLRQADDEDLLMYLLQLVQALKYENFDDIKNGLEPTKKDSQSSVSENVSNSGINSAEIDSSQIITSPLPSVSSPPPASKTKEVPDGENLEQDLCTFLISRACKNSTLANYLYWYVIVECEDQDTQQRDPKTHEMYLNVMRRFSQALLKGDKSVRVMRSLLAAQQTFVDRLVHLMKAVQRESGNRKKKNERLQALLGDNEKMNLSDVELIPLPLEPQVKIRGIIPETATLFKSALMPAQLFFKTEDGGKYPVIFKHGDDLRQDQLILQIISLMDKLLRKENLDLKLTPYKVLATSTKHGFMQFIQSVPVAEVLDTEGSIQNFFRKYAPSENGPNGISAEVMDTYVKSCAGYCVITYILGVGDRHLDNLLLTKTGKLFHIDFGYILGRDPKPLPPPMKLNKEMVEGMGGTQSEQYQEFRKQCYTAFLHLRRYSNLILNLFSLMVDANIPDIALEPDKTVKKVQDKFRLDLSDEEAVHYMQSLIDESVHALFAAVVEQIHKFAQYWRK
pIC50: −log10 of the molar value.
measurement_type: pIC50

// known answers, use as guide
test_smiles	measured_number
C[C@@H]1COCCN1c1cc2n(n1)[C@@H](C(F)(F)C(F)(F)F)CNC2=O	4.30
C[C@H](CO)[C@@H]1CNC(=O)c2cc(N3CCOC[C@H]3C)nn21	4.49
C[C@@H]1COCCN1c1cc2n(n1)[C@H](CC(F)(F)F)CNC2=O	4.44

[1] C[C@@H]1COCCN1c1cc2n(n1)C[C@H](CC(F)(F)F)NC2=O
[2] C[C@@H]1COCCN1c1cc2n(n1)[C@@H](C1(c3ccccc3)CC1)CNC2=O
[3] C[C@@H]1COCCN1c1cc2n(n1)[C@H](C(F)(F)C(F)(F)F)CNC2=O
Q: Number of compounds to sort: 3. Sort criterion: pIC50, ascending. Please respond with the labels ordered as the question requires.
Ans: 2, 1, 3

###

target: Phosphatidylinositol 3-kinase catalytic subunit type 3 (Homo sapiens); test: VPS34 ADP-Glo kinase assay
measurement_type: IC50 (nM)

Before answering, review these 4 worked examples.
compound	units_text	IC50
C[C@@H]1COCCN1c1cc2n(n1)C[C@@H](CC(F)(F)F)NC2=O [WO2022093820, Compound 52]	nM	24700
CC[C@@]1(C2CC2)CNC(=O)c2cc(N3CCOC[C@H]3C)nn21 [WO2022093820, Compound 27]	nM	32
C[C@@H]1COCCN1c1cc2n(n1)[C@@H](C1(C)CC1)CNC2=O [WO2022093820, Compound 12]	nM	3350
C[C@@H]1COCCN1c1cc2n(n1)[C@@](C)(C1CCC1)CNC2=O [WO2022093820, Compound 45]	nM	260

[I] C[C@@H]1COCCN1c1cc2n(n1)[C@H](C1(C)CC1)CNC2=O [WO2022093820, Compound 11]
[II] CC(C)[C@@]1(C)CNC(=O)c2cc(N3CCOC[C@H]3C)nn21 [WO2022093820, Compound 26]
Q: # compare IC50 for I vs II ; return the one with the smaller value Lab note: record the label of whichever item you select.
Ans: I

###

molecular target: Phosphatidylinositol 3-kinase catalytic subunit type 3 (Homo sapiens); assay: VPS34 ADP-Glo kinase assay
measurement_type: IC50 (µM)

Example results:
compound	measurement_type	measured_number
CC[C@@H]1CNC(=O)c2cc(N3CCOC[C@H]3C)nn21	IC50	12.8
C[C@H](CO)C1CNC(=O)c2cc(N3CCOC[C@H]3C)nn21 (some centres undefined)	IC50	0.532
CC(C)[C@H]1n2nc(N3CCOC[C@H]3C)cc2C(=O)NC12CC2	IC50	0.024

[A] C[C@@H]1COCCN1c1cc2n(n1)[C@](C)(C1CCC1)CNC2=O
[B] C[C@@H]1COCCN1c1cc2n(n1)[C@H]([C@@H](C)c1ccccc1)CNC2=O
Q: Looking at A and B , which one comes out lower in IC50 terms? Please identify the chosen entry by its label.
Ans: B

###

target: Phosphatidylinositol 3-kinase catalytic subunit type 3 (Homo sapiens); experiment: VPS34 ADP-Glo kinase assay
measurement_type: IC50 (nM)

Known IC50 results, listed for orientation:
compound	system_tested	IC50 (nM)
C[C@@H]1COCCN1c1cc2n(n1)[C@@](C)(C1CC1)C1(CC1)NC2=O	Phosphatidylinositol 3-kinase catalytic subunit type 3 (Homo sapiens)	1750
COC[C@]1(C(C)C)CNC(=O)c2cc(N3CCOC[C@H]3C)nn21	Phosphatidylinositol 3-kinase catalytic subunit type 3 (Homo sapiens)	563
C[C@@H]1COCCN1c1cc2n(n1)[C@@](C)(C1CC1)CNC2=O	Phosphatidylinositol 3-kinase catalytic subunit type 3 (Homo sapiens)	1340
C[C@@H]1COCCN1c1cc2n(n1)[C@H]([C@@H](C)CO)CNC2=O	Phosphatidylinositol 3-kinase catalytic subunit type 3 (Homo sapiens)	27300

[P] C[C@@H]1COCCN1c1cc2n(n1)C([C@@H](C)c1ccccc1)CNC2=O (some centres undefined)
[Q] CC(C)[C@@H]1n2nc(N3CCOC[C@H]3C)cc2C(=O)NC12CC2
[R] C[C@H](c1ccccc1)[C@@H]1CNC(=O)c2cc(N3CCOC[C@H]3C)nn21
[S] CC[C@]1(C2CC2)CNC(=O)c2cc(N3CCOC[C@H]3C)nn21
Q: Falling order of IC50, please. Please list the labels according to the requested order.
Ans: R, Q, S, P

The reported numbers originate from BindingDB's records for patent WO2022093820.
